The measurements presented in this section are drawn from patent US20230295162A1.

System: SCC-25 (tongue, squamous cell carcinoma) cells
Test: Cell viability assay, CellTiter-Glo (Example 21)
Type: cell-based, human
Details: 100 nM, 72 h treatment
measured_endpoint: SCC-25 (tongue, squamous cell carcinoma) cell viability (% of control)

Solved entries:
[[record]]
compound = "[N-]=[N+]=Nc1cccc(CN2CCC3=C(C2)C(=O)N(Cc2ccc(C(F)(F)F)cc2)C2=NCCN23)c1"
result = "32.5 ± 1.2 % of control"

[[record]]
compound = "O=C1C2=C(CCN(Cc3cccc(F)c3)C2)N2CCN=C2N1Cc1ccc(F)cc1 [I/6, reference compound]"
result = "42.5 ± 1.8 % of control"

[[record]]
compound = "O=C1C2=C(CCN(Cc3cc(F)cc(F)c3)C2)N2CCN=C2N1Cc1ccc(Cl)cc1"
result = "37.5 ± 1.4 % of control"

[[record]]
compound = "O=C1C2=C(CCN(Cc3cccc(F)c3)C2)N2CCN=C2N1Cc1ccc(C(F)(F)F)cc1 [I/3, reference compound]"
result = "34.9 ± 3.9 % of control"


Proceeding to the next compound to report its SCC-25 (tongue, squamous cell carcinoma) cell viability (% of control).
Form field: reported SCC-25 (tongue, squamous cell carcinoma) cell viability (% of control) of O=C1C2=C(CCN(Cc3cc(F)cc(F)c3)C2)N2CCN=C2N1Cc1ccc(F)cc1
35.1 ± 2.2 % of control

###

Tested on: FaDu (pharynx, squamous cell carcinoma) cells
Assay: Cell viability assay, CellTiter-Glo (Example 21)
Assay type: cell-based, human
Details: 300 nM, 72 h treatment
Procedure: Effect of the selected compounds on cancer cell viability was measured via CellTiter-Glo® luminescent cell viability assay (Promega, Madison, WI, USA) according to the manufacturer's instructions. Cells were plated onto a flat-bottomed, white 96 well plate (BRANDplates®, cat. no.: 781965). […] After the treatment, the luminescence signal was recorded using a microplate reader (BioTek Synergy 2 Multi-Mode Reader, BioTek, Winooski, VT, USA). […]
Each entry below carries its recorded FaDu (pharynx, squamous cell carcinoma) cell viability (% of control).

[[record]]
molecule = "O=C1C2=C(CCN(Cc3cccc(F)c3)C2)N2CCN=C2N1Cc1ccc(C(F)(F)F)cc1 [I/3, reference compound]"
result = "22.4 ± 5.9 % of control"


State its FaDu (pharynx, squamous cell carcinoma) cell viability (% of control) on FaDu (pharynx, squamous cell carcinoma) cells: O=C1C2=C(CCN(Cc3ccccc3)C2)N2CCN=C2N1Cc1ccc(C(F)(F)F)cc1 [I/1, reference compound]
25.6 ± 5.3 % of control

Next entry: [N-]=[N+]=Nc1cccc(CN2CCC3=C(C2)C(=O)N(Cc2ccc(Cl)cc2)C2=NCCN23)c1
24.6 ± 6.8 % of control

How about O=C1C2=C(CCN(Cc3cc(F)cc(F)c3)C2)N2CCN=C2N1Cc1ccc(Cl)cc1 ?
24.7 ± 5.0 % of control

###

measured_endpoint: melting point (°C)
Hi! Could you send only the number? It should be in °C, unit omitted.

Item O=C1C2=C(CCN(Cc3cc(F)cc(F)c3)C2)N2CCN=C2N1Cc1ccc(C(F)(F)F)cc1 [I/30] has what recorded melting point?
168

Repeat with O=C1C2=C(CCN(Cc3cc(F)cc(F)c3)C2)N2CCN=C2N1C(CO)c1ccc(Cl)cc1 (racemic) [I/128]
86

Subsequent entry: O=C1C2=C(CCN(Cc3cc(F)cc(F)c3)C2)N2CCN=C2N1Cc1ccc(Cl)cc1 [I/124]
162.4

Same read-out for O=C1C2=C(CCN(Cc3cc(F)cc(F)c3)C2)N2CCN=C2N1[C@@H](CO)c1ccc(F)cc1 [I/129 (R)] ?
76

Next: O=C1C2=C(CCN(Cc3cc(F)cc(F)c3)C2)N2CCN=C2N1Cc1ccc(F)cc1 [I/7]
190.5

###

Measured pIC50, listed per entry.
System: A549 lung carcinoma cell line
Test: CellTiter-Glo IC50 (Example 19)
Assay type: cell-based
Settings: Homo sapiens, 72 h
# pIC50 is unitless: minus log10 of the molar concentration; print number only

[[record]]
molecule = "[N-]=[N+]=Nc1cccc(CN2CCC3=C(C2)C(=O)N(Cc2ccc(C(F)(F)F)cc2)C2=NCCN23)c1 [I/111]"
experimental_system = "A549 lung carcinoma cell line"
measured_endpoint = "pIC50"
recorded_number = 8.10

[[record]]
molecule = "[N-]=[N+]=Nc1ccc(CN2C(=O)C3=C(CCN(Cc4cc(F)cc(F)c4)C3)N3CCN=C23)cc1 [I/107]"
experimental_system = "A549 lung carcinoma cell line"
measured_endpoint = "pIC50"
recorded_number = 7.80


Form: Entry = O=C1C2=C(CCN(Cc3ccccc3)C2)N2CCN=C2N1Cc1ccc(C(F)(F)F)cc1 [I/1, reference compound] | System = A549 lung carcinoma cell line | pIC50 = ____
7.22

Thanks! And O=C1C2=C(CCN(Cc3cc(F)cc(F)c3)C2)N2CCN=C2N1Cc1ccc(Br)cc1 [I/39] ?
8.40

And for O=C1C2=C(CCN(Cc3cc(F)cc(F)c3)C2)N2CCN=C2N1Cc1ccc(C(F)(F)F)cc1 [I/30] ?
8.40

# iterate: O=C1C2=C(CCN(Cc3cc(F)cc(F)c3)C2)N2CCN=C2N1Cc1ccc(F)cc1 [I/7]
8.10

###

Tested on: SCC-25 (tongue, squamous cell carcinoma) cells
Assay: Cell viability assay, CellTiter-Glo (Example 21)
Assay type: cell-based, human
Conditions: 3.7 nM, 72 h treatment
# Lookup of reported SCC-25 (tongue, squamous cell carcinoma) cell viability (% of control) keyed by entry

[[record]]
molecule = "O=C1C2=C(CCN(Cc3cc(F)cc(F)c3)C2)N2CCN=C2N1Cc1ccc(C(F)(F)F)cc1"
result = "78.7 ± 15.0 % of control"

[[record]]
molecule = "O=C1C2=C(CCN(Cc3cccc(F)c3)C2)N2CCN=C2N1Cc1ccc(C(F)(F)F)cc1 [I/3, reference compound]"
result = "101.0 ± 4.9 % of control"

[[record]]
molecule = "O=C1C2=C(CCN(Cc3cc(F)cc(F)c3)C2)N2CCN=C2N1Cc1ccc(F)cc1"
result = "88.7 ± 5.6 % of control"


Let us examine a further case.
Could you share which SCC-25 (tongue, squamous cell carcinoma) cell viability (% of control) value was measured for O=C1C2=C(CCN(Cc3cc(F)cc(F)c3)C2)N2CCN=C2N1Cc1ccc(Cl)cc1 ?
47.2 ± 5.8 % of control

###

Tested on: EBC-1 (lung, squamous cell carcinoma) cells
Assay: Cell viability assay, CellTiter-Glo (Example 21)
Format: cell-based, human
Details: 3.7 nM, 72 h treatment
Measured EBC-1 (lung, squamous cell carcinoma) cell viability (% of control) of individual entries

[[record]]
compound = "O=C1C2=C(CCN(Cc3cccc(F)c3)C2)N2CCN=C2N1Cc1ccc(C(F)(F)F)cc1 [I/3, reference compound]"
result = "97.8 ± 4.0 % of control"

[[record]]
compound = "O=C1C2=C(CCN(Cc3cc(F)cc(F)c3)C2)N2CCN=C2N1Cc1ccc(Cl)cc1"
result = "70.9 ± 8.3 % of control"

[[record]]
compound = "O=C1C2=C(CCN(Cc3cc(F)cc(F)c3)C2)N2CCN=C2N1Cc1ccc(C(F)(F)F)cc1"
result = "76.4 ± 2.2 % of control"

[[record]]
compound = "[N-]=[N+]=Nc1ccc(CN2C(=O)C3=C(CCN(Cc4cc(F)cc(F)c4)C3)N3CCN=C23)cc1"
result = "99.9 ± 2.5 % of control"

[[record]]
compound = "[N-]=[N+]=Nc1cccc(CN2CCC3=C(C2)C(=O)N(Cc2ccc(Cl)cc2)C2=NCCN23)c1"
result = "97.1 ± 6.0 % of control"

[[record]]
compound = "O=C1C2=C(CCN(Cc3cccc(F)c3)C2)N2CCN=C2N1Cc1ccc(F)cc1 [I/6, reference compound]"
result = "101.0 ± 19.5 % of control"

[[record]]
compound = "O=C1C2=C(CCN(Cc3cc(F)cc(F)c3)C2)N2CCN=C2N1Cc1ccc(F)cc1"
result = "79.8 ± 4.1 % of control"

[[record]]
compound = "O=C1C2=C(CCN(Cc3ccccc3)C2)N2CCN=C2N1Cc1ccc(C(F)(F)F)cc1 [I/1, reference compound]"
result = "98.8 ± 5.8 % of control"


Lab note: next compound to report on.
Look up EBC-1 (lung, squamous cell carcinoma) cell viability (% of control): [N-]=[N+]=Nc1cccc(CN2CCC3=C(C2)C(=O)N(Cc2ccc(C(F)(F)F)cc2)C2=NCCN23)c1
94.1 ± 3.0 % of control

###

Tested on: DU 145 (prostate, carcinoma) cells
Assay: Cell viability assay, CellTiter-Glo (Example 21)
Format: cell-based, human
Conditions: 300 nM, 72 h
# Lookup of reported DU 145 cell viability keyed by entry

As a guide, the following entries are already answered.
[[record]]
compound = "O=C1C2=C(CCN(Cc3cc(F)cc(F)c3)C2)N2CCN=C2N1Cc1ccc(F)cc1 [I/7]"
experimental_system = "DU 145 (prostate, carcinoma) cells"
result = "8.5 ± 2.4 % of control"

[[record]]
compound = "O=C1C2=C(CCN(Cc3cc(F)cc(F)c3)C2)N2CCN=C2N1Cc1ccc(C(F)(F)F)cc1 [I/30]"
experimental_system = "DU 145 (prostate, carcinoma) cells"
result = "8.0 ± 2.9 % of control"

[[record]]
compound = "[N-]=[N+]=Nc1cccc(CN2CCC3=C(C2)C(=O)N(Cc2ccc(Cl)cc2)C2=NCCN23)c1 [I/133]"
experimental_system = "DU 145 (prostate, carcinoma) cells"
result = "8.1 ± 2.6 % of control"

[[record]]
compound = "O=C1C2=C(CCN(Cc3cccc(F)c3)C2)N2CCN=C2N1Cc1ccc(F)cc1 [I/6, reference compound]"
experimental_system = "DU 145 (prostate, carcinoma) cells"
result = "7.9 ± 1.6 % of control"

[[record]]
compound = "O=C1C2=C(CCN(Cc3cc(F)cc(F)c3)C2)N2CCN=C2N1Cc1ccc(Cl)cc1 [I/124]"
experimental_system = "DU 145 (prostate, carcinoma) cells"
result = "7.7 ± 1.8 % of control"

[[record]]
compound = "O=C1C2=C(CCN(Cc3cccc(F)c3)C2)N2CCN=C2N1Cc1ccc(C(F)(F)F)cc1 [I/3, reference compound]"
experimental_system = "DU 145 (prostate, carcinoma) cells"
result = "7.2 ± 1.2 % of control"

[[record]]
compound = "[N-]=[N+]=Nc1ccc(CN2C(=O)C3=C(CCN(Cc4cc(F)cc(F)c4)C3)N3CCN=C23)cc1 [I/107]"
experimental_system = "DU 145 (prostate, carcinoma) cells"
result = "9.0 ± 2.9 % of control"

[[record]]
compound = "O=C1C2=C(CCN(Cc3ccccc3)C2)N2CCN=C2N1Cc1ccc(C(F)(F)F)cc1 [I/1, reference compound]"
experimental_system = "DU 145 (prostate, carcinoma) cells"
result = "8.1 ± 2.2 % of control"


Shift focus to the following entry.
I would be grateful if you could share the reported DU 145 cell viability for [N-]=[N+]=Nc1cccc(CN2CCC3=C(C2)C(=O)N(Cc2ccc(C(F)(F)F)cc2)C2=NCCN23)c1 [I/111] .
8.1 ± 1.9 % of control
